# Test system: PC-3 prostate
# assay.comment: NCI tumour cell line growth inhibition, 48 h; in the data active means GI50 below about 0.43 µM; inactive means the rest
Labels: active, inactive

• COC1=CC(c2ccc[nH]2)=N/C1=C\c1[nH]c(C)c(C(=O)OC(C)C)c1C = active
• COc1cc(Cc2cnc(/N=C3\C(=O)N(CN4CCN(c5c(F)cc6c(=O)c(C(=O)O)cn(C7CC7)c6c5OC)CC4C)c4ccc(F)cc43)nc2N)cc(OC)c1OC (stereo not drawn) = inactive
• Cc1nc2ccccc2c(N)c1-c1cc(C)c2c(C)nc3ccccc3c2n1 = inactive
• CCCCCN(CCCCC)CC(O)c1cc(C)c2ccc3cc(C(C)C)ccc3c2c1 (stereo not drawn) = inactive
• O=C(Nc1ccccc1)NS(=O)(=O)c1ccc(-n2nc3c(c2-c2cccs2)Cc2ccccc2-3)cc1 = inactive
• Cc1cc(I)cc(CN(C)CCCCN2CCCCC2)c1O = inactive
• C#Cc1ccc(-n2c(/C=C/c3ccc(C(F)(F)F)cc3)nc3ncccc3c2=O)cc1 = inactive
• O=C(/C=C/C12c3ccccc3C(c3ccccc31)C1C(=O)NC(=O)C12)c1ccncc1 (stereo not drawn) = inactive

* * *

# System: 786-0 renal
# assay.comment: NCI tumour cell line growth inhibition, 48 h
Catalogue of TGI values
value.kind: TGI

* Cc1ccc(SCC(CSCCO)OCn2cnc3c2NC(N)=NC32OCCO2)cc1 (centres undefined) | > 100 µM
* Cc1cc(C)nc(NS(=O)(=O)c2ccc(NC(=O)c3ccc(Cl)c4c(Nc5ccc(S(=O)(=O)Nc6nc(C)cc(C)n6)cc5)c5ccccc5nc34)cc2)n1 | 20.4 µM
* COc1ccc2c(C3=C(c4cn(C)c5ccccc45)C(=O)NC3=O)cn(C)c2c1 | > 25 µM
* c1ccc2cc(-c3cc(-c4cc(-c5ccc6ccccc6c5)on4)no3)ccc2c1 | > 100 µM

* * *

# Test system: UACC-257 melanoma
# assay.comment: NCI tumour cell line growth inhibition, 48 h; in the data active means GI50 below about 0.43 µM; inactive means the rest
Outcomes: label 1 (active), label 0 (inactive)

- CCC(CO)Nc1nc2ccc(Cl)cc2c2ccccc12 (centres undefined): label 0
- O=C1/C(=C/c2cccc([N+](=O)[O-])c2)COc2ccc(O)cc21: label 0
- COc1cc(Cc2cnc(/N=C3\C(=O)N(CN4CCN(c5c(F)cc6c(=O)c(C(=O)O)cn(C7CC7)c6c5OC)CC4C)c4ccc(F)cc43)nc2N)cc(OC)c1OC (centres undefined): label 0
- CC/C=C\CCC/C=C1/C(=O)C=C[C@@H]1C/C=C\CCCC(=O)OC: label 0
- COC1=CC(=O)c2nc(-c3ccncc3)[nH]c2C1=O: label 0
- CCCNC1=C2CC(C)CC(OC)[C@@H](O)[C@H](C)/C=C(\C)C(OC(N)=O)C(OC)/C=C\C=C(/C)C(=O)NC(=CC1=O)C2=O (some centres undefined): label 1
- O=C(/C=C/C12c3ccccc3C(c3ccccc31)C1C(=O)NC(=O)C12)c1ccncc1 (centres undefined): label 0
- Clc1ccc2c(NCCCCNc3nc(N4CCCCC4)nc4ccccc34)ccnc2c1: label 0
- Cc1c2cnccc2c(C)c2c1c1ccccc1n2CCCN: label 0

* * *

# Tested on: OVCAR-8 ovarian
# assay.comment: NCI tumour cell line growth inhibition, 48 h
This listing pairs molecules with measured TGI.
value.kind: TGI

• CC(C)/C(Cl)=N\OC(=O)Nc1ccc(S(N)(=O)=O)cc1 = 32 µM
• C(/c1ccco1)=c1/nc(-c2ccccc2)n2c1nc1ccccc12 = > 100 µM
• CC1(c2ccc(F)cc2)C(C#N)C(=O)NC(=O)C1C#N (stereo not given) = > 100 µM
• O=C(O)CSc1ccc([N+](=O)[O-])cc1[N+](=O)[O-] = > 100 µM
• COc1ccc(/C=C2\CCC(C)C3=C2NC(=S)NC3c2ccc(OC)c(OC)c2)cc1OC (stereo not given) = > 90.2 µM
• O=[N+]([O-])/C(C(Cl)=C(Cl)Cl)=C(\SCc1ccccc1)N1CCCCC1 = 54.5 µM
• CCN(CC)CCC(=O)Nc1ccc2c(c1)C(=O)c1ccc(NC(=O)CCN(CC)CC)cc1C2=O = 18 µM
• COC1CCC2C(NS(=O)(=O)c3ccc(C)cc3)CCCC2O1 (stereo not given) (tested in a mixture with another compound) = > 34.5 µM
• COc1cc2c(cc1OC)C(c1ccccc1CCCCl)=NCC2 = > 100 µM
• c1ccc2cc(-c3cc(-c4cc(-c5ccc6ccccc6c5)on4)no3)ccc2c1 = > 100 µM
